Molecular target: Lysophosphatidic acid receptor 1 (Rattus norvegicus, UniProt P61794)
Sequence (P61794 whole entry): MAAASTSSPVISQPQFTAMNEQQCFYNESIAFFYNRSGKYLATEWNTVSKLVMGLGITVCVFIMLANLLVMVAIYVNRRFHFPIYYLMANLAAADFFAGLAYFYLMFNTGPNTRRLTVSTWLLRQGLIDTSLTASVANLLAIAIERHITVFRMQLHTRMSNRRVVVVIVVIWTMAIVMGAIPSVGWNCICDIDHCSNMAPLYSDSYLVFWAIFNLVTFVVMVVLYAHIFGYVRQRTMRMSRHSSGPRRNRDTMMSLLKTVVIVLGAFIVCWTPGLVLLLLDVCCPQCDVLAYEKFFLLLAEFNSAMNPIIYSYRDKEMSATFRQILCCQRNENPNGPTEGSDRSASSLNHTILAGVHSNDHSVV
Assay: Activity at LPA1 receptor in RH7777 rat hepatoma cell line
readout-kind: EC50

CCCCCCC/C=C/CCCCCCCC[C@@H]1OC[C@@H](COP(O)(O)=S)O1 :: 2260 nM

Ask: Which EC50 value belongs to CCCCCCC/C=C/CCCCCCCCC1OCC(COP(O)(O)=S)O1 (configuration not stated) ?
Result: 981 nM

Ask: Query CCCCCCC/C=C/CCCCCCCC[C@H]1OC[C@@H](COP(O)(O)=S)O1 next
Result: 1560 nM

###

Molecular target: Autotaxin (Homo sapiens, UniProt Q13822)
Assay: Inhibition of lysophospholipase D autotaxin
Set-up: concentration or dose not given beside the values
Settings: values are per cent of control
readout-kind: residual activity
Answer with the figure and its unit, nothing else.

A selection of reference data follows.
CCCCCCC/C=C/CCCCCCCC[C@@H]1OC[C@@H](COP(O)(O)=S)O1 :: 64%
CCCCCCC/C=C/CCCCCCCC[C@H]1OC[C@@H](COP(O)(O)=S)O1 :: 60%
CCCCCCC/C=C/CCCCCCCC[C@H]1OC[C@@H](COP(=O)(O)O)O1 :: 25%
CCCCCCC/C=C/CCCCCCCC[C@@H]1OC[C@H](COP(O)(O)=S)O1 :: 66%
CCCCCCCCc1ccc(CCCCCCC2OCC(COP(=O)(O)O)O2)cc1 (stereo not given) :: 10%

Ask: Which residual activity value belongs to CCCCCCC/C=C/CCCCCCCC[C@H]1OC[C@H](COP(O)(O)=S)O1 ?
Result: 74%

Ask: Query CCCCCCCCc1ccc(CCCCCCC2OCC(COP(O)(O)=S)O2)cc1 (stereo not given) next
Result: 55%

Ask: Query CCCCCCC/C=C/CCCCCCCC[C@@H]1OC[C@H](COP(=O)(O)O)O1 next
Result: 28%

Ask: Query C/C=C/C/C=C/C/C=C/CCCCCCCCC1OCC(COP(=O)(O)O)O1 (stereo not given) next
Result: 54%

Ask: Query CCCCCCCCCCCCC1OCC(COP(=O)(O)O)O1 (stereo not given) next
Result: 26%
